Ref: patent US20070219767A1

# target: human serum albumin (Homo sapiens, UniProt P02768)
# Sequence (P02768 25-609): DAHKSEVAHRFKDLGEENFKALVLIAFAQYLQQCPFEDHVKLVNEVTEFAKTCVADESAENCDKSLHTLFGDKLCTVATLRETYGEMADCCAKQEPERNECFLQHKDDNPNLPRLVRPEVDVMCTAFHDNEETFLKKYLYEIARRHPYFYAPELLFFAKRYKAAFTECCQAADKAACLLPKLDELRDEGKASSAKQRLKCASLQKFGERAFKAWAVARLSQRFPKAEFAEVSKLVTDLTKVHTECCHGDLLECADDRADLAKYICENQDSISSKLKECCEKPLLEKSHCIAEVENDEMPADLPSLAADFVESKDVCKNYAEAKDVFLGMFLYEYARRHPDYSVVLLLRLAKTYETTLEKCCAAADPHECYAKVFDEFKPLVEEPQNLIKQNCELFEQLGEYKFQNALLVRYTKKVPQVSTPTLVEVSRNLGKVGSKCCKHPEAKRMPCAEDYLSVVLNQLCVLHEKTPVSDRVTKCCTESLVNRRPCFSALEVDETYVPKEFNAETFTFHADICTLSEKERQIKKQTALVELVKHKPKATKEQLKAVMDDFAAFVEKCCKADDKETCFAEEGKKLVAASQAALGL
# test: X-ray crystallography of human serum albumin/drug complexes: binding location
# Set-up: Domain I (1 through 192); Domain II (193 through 395);Domain III (396 THROUGH 585)
# condition-label: Table I, Phase I; subdomain of HSA where the drug is found in the crystal complex
test-readout: Albumin Binding Location

These solved cases illustrate the format of a correct answer.
CC1=C(/C=C/C(C)=C/C=C/C(C)=C/C(=O)O)C(C)(C)CCC1
IIIA
CCc1nn(CCCN2CCN(c3cccc(Cl)c3)CC2)c(=O)n1CCOc1ccccc1
IIIA
CC[C@H](C)C(=O)O[C@H]1C[C@@H](C)C=C2C=C[C@H](C)[C@H](CC[C@@H]3C[C@@H](O)CC(=O)O3)[C@H]21
IIA
O=C1NC(=O)C(c2ccccc2)(c2ccccc2)N1
IIA
CN(C/C=C/C#CC(C)(C)C)Cc1cccc2ccccc12
IIIA

Consider the additional molecule presented here.
input: Supply measured Albumin Binding Location of "C[C@]12C=CC(=O)C=C1CC[C@@H]1[C@@H]2C(=O)C[C@@]2(C)[C@H]1CC[C@]2(O)C(=O)CO" in your reply.
output: IIA
